# System: human emopamil binding protein and human 7-dehydrocholesterol reductase co-expressing cells (hEBP-DHCR7 membrane) (Homo sapiens (Human), UniProt Q15125)
# Sequence (Q15125 whole entry): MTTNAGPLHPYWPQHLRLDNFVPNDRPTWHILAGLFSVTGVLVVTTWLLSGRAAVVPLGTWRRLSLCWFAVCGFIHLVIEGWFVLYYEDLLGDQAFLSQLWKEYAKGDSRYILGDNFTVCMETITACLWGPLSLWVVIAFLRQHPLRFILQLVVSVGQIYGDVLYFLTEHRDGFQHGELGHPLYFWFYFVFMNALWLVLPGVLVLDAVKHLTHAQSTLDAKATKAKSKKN
Recorded Endpoint: log10 of Ki (log10 of the value in nM)

Compound	Test Result
O=S1(=O)CC2(CCN([C@H]3CC[C@H](c4ccc(C(F)(F)F)cc4)CC3)C2)C1	1.20
CC(C)n1nc(-c2ccc(C(F)(F)F)nc2)nc1[C@H]1CC[C@H](N2CCC3(C2)CS(=O)(=O)C3)C1 (single isomer, unassigned) [17B*]	1.56
CC(C)(C)n1nc(C(F)(F)F)cc1[C@H]1CC[C@H](N2CCC3(CC2)CS(=O)(=O)C3)CC1 [Compound 85A]	1.18
O=S1(=O)CC2(CCN(C3CCN(c4ncc(C(F)(F)F)cc4F)CC3)C2)C1	1.04
CC(C)n1nc(C2CC2)nc1[C@H]1CC[C@@H](N2CCC3(C2)CS(=O)(=O)C3)C1 (single isomer, unassigned) [18D*]	3.07
CC(C)n1nc(-c2ccc(C(F)(F)F)nc2)nc1[C@@H]1CC[C@H](N2CCC3(C2)CS(=O)(=O)C3)C1 (single isomer, unassigned) [17A*]	1.38

* * *

# System: human emopamil binding protein and human 7-dehydrocholesterol reductase co-expressing cells (hEBP-DHCR7 membrane) (Homo sapiens (Human), UniProt Q15125)
# Procedure Text: Radioligand filter binding assay on hEBP-DHCR7 membrane
# Protocol Conditions: [3H]-(S)-6-(2-Methyl-3-(6-(trifluoromethyl)pyridin-3-yl)propyl)-2-thia-6-azaspiro[3.4]octane 2,2-dioxide radioligand, HEK293 membrane co-expressing hEBP and hDHCR7

Compound	Ki [nM]
CC(C)[C@@H]1C[C@@H](N2CCC3(C2)CS(=O)(=O)C3)CCN1c1ccc(C(F)(F)F)nc1 (single isomer, unassigned) [82B*]	46
O=S1(=O)CC2(CCCN([C@H]3CC[C@H](c4ccc(C(F)(F)F)nc4)CC3)C2)C1	22
CC(C)n1nc(C(F)(F)F)cc1[C@@H]1CCC[C@H](N2CCC3(CC2)CS(=O)(=O)C3)C1 (single isomer, unassigned) [78B*]	26
O=S1(=O)CC[C@@]2(CCCN([C@H]3CC[C@H](c4cc(C(F)(F)F)nn4C4CC4)CC3)C2)C1 (single isomer, unassigned) [69B*]	35
O=S1(=O)CC2(CCN(C3CCN(c4ncc(C(F)(F)F)cc4F)CC3)CC2)C1	18
CC(C)n1nc(C2CC2)nc1[C@H]1CC[C@H](N2CCC3(C2)CS(=O)(=O)C3)C1 (single isomer, unassigned) [18B*]	650
O=S1(=O)CC2(CCN([C@H]3CO[C@@H](c4ccc(C(F)(F)F)cc4)C3)C2)C1 (stereo in doubt) [19A*]	21
O=S1(=O)CC2(CCN([C@H]3CCC[C@@H](c4ccc(C(F)(F)F)nc4)C3)CC2)C1 (single isomer, unassigned) [56C*]	140
O=S1(=O)CC2(CCN([C@H]3CC[C@@H](c4cnc(C(F)(F)F)nc4)CC3)C2)C1 [Compound 94B]	115
O=S1(=O)CC2(CCN([C@@H]3CC[C@H](c4ccc(C(F)(F)F)nc4)C3)C2)C1 (single isomer, unassigned) [11C*]	35
CC(C)n1nc(-c2ccc(C(F)(F)F)cc2)nc1[C@H]1CC[C@@H](N2CCC3(C2)CS(=O)(=O)C3)C1 (single isomer, unassigned) [53B*]	9.9
O=S1(=O)CC2(CCN([C@@H]3CC[C@@H](c4ccc(C(F)(F)F)nc4)C3)CC2)C1 (single isomer, unassigned) [57A*]	160
O=S1(=O)CC2(CCN([C@H]3CC[C@H](c4cc(C(F)(F)F)nn4C4CC4)CC3)C2)C1 [Compound 12A]	34
CCn1nc(-c2ccc(C(F)(F)F)nc2)nc1[C@H]1CC[C@@H](N2CCC3(C2)CS(=O)(=O)C3)CC1 [36B*]	260
O=S1(=O)CC2(CCN([C@H]3CC[C@H](c4ccnc(C(F)(F)F)n4)CC3)C2)C1	73
O=S1(=O)CC2(CCN([C@@H]3CCC[C@H](c4ccc(C(F)(F)F)nc4)C3)CC2)C1 (single isomer, unassigned) [56A*]	61
O=S1(=O)CC2(CCN([C@H]3CC[C@H](c4ncc(C(F)(F)F)cc4F)CC3)C2)C1	72
O=S1(=O)CC2(CCN([C@H]3CCC[C@H](c4ccc(C(F)(F)F)nc4)C3)C2)C1 (single isomer, unassigned) [54D*]	68
O=S1(=O)CC2(CCN([C@H]3CC[C@H](c4ccc(F)c(F)c4)CC3)CC2)C1 [Compound 77A]	33
O=S1(=O)CC2(CCN([C@@H]3CC[C@@H](c4ccc(C(F)(F)F)cc4)C3)C2)C1	26.8
Cn1nc(C(F)(F)F)cc1[C@H]1CC[C@H](N2CCC[C@@]3(CCS(=O)(=O)C3)C2)CC1 (single isomer, unassigned) [26A*]	25
